Measured pKd, listed per entry.
Target: T315I ABL mutant kinase domain (Homo sapiens, UniProt P00519, T315I)
Construct: ABL kinase domain (corresponding to residues 229-512); GST (N, cleaved yes); PreScission cleavage site (N, cleaved yes); made in house; host or cells: High5 insect cells (baculovirus)
Assay: ATP site-dependent displacement assay, indolinone probe of 3.1
Format: binding
Conditions: Tables 2 and 3; probe 3.1; 3 μM highest inhibitor concentration
From the text: KD values, are the average of three independent experiments.
pKd: −log10 of the molar value.

Molecule: CC(C)(NC(=O)c1cc2c(NC(=O)c3ccc(CN4CCCCC4)cc3)n[nH]c2s1)c1cccc(F)c1 [Compound 13]
pKd: 8.00
//
Molecule: CN1CCN(Cc2ccc(C(=O)Nc3n[nH]c4sc(C(=O)NC(C)(C)c5ccccc5)cc34)cc2)CC1 [Compound 10]
pKd: 8.08
//
Molecule: CC(C)NCc1ccc(C(=O)Nc2n[nH]c3sc(C(=O)NC(C)(C)c4ccccc4)cc23)cc1 [Compound 11]
pKd: 7.92
//
Molecule: CC(C)NCc1ccc(C(=O)Nc2n[nH]c3sc(C(=O)NC(C)(C)c4ccccc4F)cc23)cc1 [Compound 7]
pKd: 7.70
//
Molecule: CC(C)(NC(=O)c1cc2c(NC(=O)c3ccc(CN4CCCCC4)cc3)n[nH]c2s1)c1ccccc1Cl [Compound 9]
pKd: 7.85
//
Molecule: CN1CCN(c2ccc(C(=O)Nc3n[nH]c4sc(C(=O)NC(C)(C)c5ccccc5F)cc34)cc2)CC1 [Compound 8]
pKd: 7.92
//
Molecule: CC(C)(NC(=O)c1cc2c(NC(=O)c3ccc(CN4CCCCC4)cc3)n[nH]c2s1)c1ccccc1 [Compound 1]
pKd: 7.68
